# System: UACC-257
# Experimental details: NCI 60 cell panel SRB screen
# Assay type: cell-based
# Cond: Homo sapiens, UACC-257, read-out: percent cell growth promotion
Friendly reminder: activity at 10 µM below 90% is MET, at or above is NOT MET.

Just wondering, is activity at 10 µM of `CCOC(=O)N1CCN(c2nncc3ccccc23)CC1` below 90%?
NOT MET

Just wondering, is activity at 10 µM of `Cc1nnc(N2CCN(c3ccccc3)CC2)c2ccccc12` below 90%?
NOT MET

Just wondering, is activity at 10 µM of Clc1ccc(Nc2nnc(CNc3ccccc3)c3ccccc23)cc1 [Compound 16a] below 90%?
MET

Just wondering, is activity at 10 µM of COc1cccc(NCc2nnc(Nc3ccc(Cl)cc3)c3ccccc23)c1 [Compound 16d] below 90%?
MET

Just wondering, is activity at 10 µM of `c1ccc(N2CCN(c3nncc4ccccc34)CC2)nc1` below 90%?
NOT MET

Just wondering, is activity at 10 µM of `Cc1nnc(Nc2ccc(NC(=O)Nc3ccc(Cl)cc3)cc2)c2ccccc12` below 90%?
MET

Just wondering, is activity at 10 µM of `O=C(Nc1ccc(Cl)cc1)Nc1ccc(Oc2nncc3ccccc23)cc1` below 90%?
MET

Just wondering, is activity at 10 µM of `Cc1nnc(Nc2ccc(NC(=O)c3ccc(Cl)cc3)cc2)c2ccccc12` below 90%?
NOT MET

Just wondering, is activity at 10 µM of O=C(Nc1ccccc1)Nc1ccc(Oc2nnc(Cl)c3ccccc23)cc1 [Compound 13a] below 90%?
MET

Just wondering, is activity at 10 µM of Clc1ccc(Nc2nnc(COc3ccccc3)c3ccccc23)cc1 [Compound 17a] below 90%?
MET

Just wondering, is activity at 10 µM of `O=C(Nc1ccc(Nc2nncc3ccccc23)cc1)c1ccc(Cl)cc1` below 90%?
NOT MET

Just wondering, is activity at 10 µM of `Cc1nnc(N2CCN(c3ccccc3F)CC2)c2ccccc12` below 90%?
NOT MET

Just wondering, is activity at 10 µM of `Cc1nnc(N2CCN(c3ccccn3)CC2)c2ccccc12` below 90%?
NOT MET

Just wondering, is activity at 10 µM of `Cc1nnc(Oc2ccc(NC(=O)Nc3ccc(Cl)cc3)cc2)c2ccccc12` below 90%?
MET

Just wondering, is activity at 10 µM of `O=C(Nc1ccc(Cl)cc1)Nc1ccc(Nc2nncc3ccccc23)cc1` below 90%?
MET
